tested on: Staphylococcus epidermidis; assay: MIC, broth microdilution; assay type: cell-based
Parameter MIC: see the listing below.

Compound: C[C@H](CCC(=O)O)C[C@H](C)C[C@H](C)C(=O)/C=C(\O)[C@H](C)C[C@H](C)C/C=C/[C@@H](C)[C@@H](O)[C@@H](C)[C@@H](O)C[C@@H]1CC[C@@](C)([C@H]2CC[C@@](C)([C@@H](C)O)O2)O1 [ionomycin, reference compound]
MIC, µg/mL: 15

Compound: [O-][n+]1ccccc1S [Pyrithione, pyrithione, reference compound]
MIC, µg/mL: 1.3

Compound: CC[C@@H](C(=O)[C@@H](C)[C@@H](O)[C@H](C)[C@@H]1O[C@@H]([C@@H](CC)C(=O)O)CC[C@@H]1C)[C@H]1O[C@]2(C=C[C@@H](O)[C@]3(CC[C@@](C)([C@H]4CC[C@](O)(CC)[C@H](C)O4)O3)O2)[C@H](C)C[C@@H]1C [salinomycin, reference compound]
MIC, µg/mL: 1.88
